# Tested on: RAW-Dual
# run-description: NF-kB SEAP reporter activity, fold change vs agonist alone; cytotoxicity flag (confluency mask): not cytotoxic; higher = enhanced NF-kB activity
# study-conditions: agonist: ODN 1826 (TLR9) 0.5 ug/mL
Whole data set: some 2,900 compounds, median “NF-kB SEAP reporter activity, fold change vs agonist alone” near 0.99, cut for the highest 2% near 2.6. Many of the other results were omitted from the sample, so the highest values are more common in it than they were.
Could you label it 1.0 if measured NF-kB SEAP reporter activity is 1 or higher, and 0.0 otherwise?

Consider the worked cases shown below.
[[record]]
compound = "C=C(C)C(=O)Nc1cccc(-c2ncnc3[nH]cc(C(=O)OCC)c23)c1 (library stock concentration (final ~1000-fold dilution): 10 mM)"
discrete_label = 1.0

[[record]]
compound = "CN1CCCC1CCOC(C)(c1ccccc1)c1ccc(Cl)cc1.O=C(O)/C=C/C(=O)O (stereo unspecified) (library stock concentration (final ~1000-fold dilution): 10 mM)"
discrete_label = 0.0

[[record]]
compound = "COC(=O)C(CC(C)C)NC(=O)c1ccc(NCC(N)CS)cc1-c1cccc2ccccc12.O=C(O)C(F)(F)F (stereo unspecified) (library stock concentration (final ~1000-fold dilution): 10 mM)"
discrete_label = 1.0


Task: Reported NF-kB SEAP reporter activity reaches at least 1 for Oc1cccc(-c2nc(N3CCOCC3)c3oc4ncccc4c3n2)c1 (library stock concentration (final ~1000-fold dilution): 10 mM) ?
Output: 0.0

Task: Reported NF-kB SEAP reporter activity reaches at least 1 for Cc1[nH]nc(C(F)(F)F)c1Cc1sc2c(c1C(=O)N1CC(C)(O)CO1)c(=O)n(C)c(=O)n2C(C)C (stereo unspecified) (library stock concentration (final ~1000-fold dilution): 10 mM) ?
Output: 1.0

Task: Reported NF-kB SEAP reporter activity reaches at least 1 for CN1CCN(CCCNc2ncc(Cl)c(-c3cc4c(C(=O)NC5CC5)cccc4s3)n2)CC1.Cl.Cl.Cl (library stock concentration (final ~1000-fold dilution): 10 mM) ?
Output: 0.0

Task: Reported NF-kB SEAP reporter activity reaches at least 1 for CCN(CC)CCCCC(NC(=O)C(CC(C)C)NC(=O)C(C)NC(=O)C(Cc1ccccc1)NC(=O)c1ccc(C(C)(C)C)cc1)C(=O)NC(CO)C(=O)OC (stereo unspecified) (library stock concentration (final ~1000-fold dilution): 10 mM) ?
Output: 0.0

Task: Reported NF-kB SEAP reporter activity reaches at least 1 for COc1ccc2cc(-c3[nH]c(-c4ccc(S(C)=O)cc4)nc3-c3ccncc3)ccc2c1 (stereo unspecified) (library stock concentration (final ~1000-fold dilution): 10 mM) ?
Output: 1.0

Task: Reported NF-kB SEAP reporter activity reaches at least 1 for Cl.NC12CC3CC(CC(C3)C1)C2 (library stock concentration (final ~1000-fold dilution): 10 mM) ?
Output: 0.0

Task: Reported NF-kB SEAP reporter activity reaches at least 1 for COc1cc2c(OC3OC(CO)C4OC(C)(C)OC4C3O)c3c(c(-c4ccc5c(c4)OCO5)c2cc1OC)C(=O)OC3 (stereo unspecified) (library stock concentration (final ~1000-fold dilution): 10 mM) ?
Output: 0.0

Task: Reported NF-kB SEAP reporter activity reaches at least 1 for Cc1cc(N2CC(C)NC(C)C2)ncc1-c1ccc(-c2nc3c(ccn3C)c(=O)[nH]2)cc1 (stereo unspecified) (library stock concentration (final ~1000-fold dilution): 10 mM) ?
Output: 0.0

Task: Reported NF-kB SEAP reporter activity reaches at least 1 for O=C1c2ccc(O)cc2C(=O)c2ccc(O)cc21 (library stock concentration (final ~1000-fold dilution): 10 mM) ?
Output: 1.0

Task: Reported NF-kB SEAP reporter activity reaches at least 1 for CCCn1c(NC(=O)c2cccc(C(N)=O)c2)nc2ccccc21 (library stock concentration (final ~1000-fold dilution): 10 mM) ?
Output: 0.0

Task: Reported NF-kB SEAP reporter activity reaches at least 1 for COC(=O)C(CCSC)NC(=O)c1ccc(NCC(N)CS)cc1-c1ccccc1.Cl (stereo unspecified) (library stock concentration (final ~1000-fold dilution): 10 mM) ?
Output: 1.0
